experiment: Pharmacokinetic study after oral or intravenous administration; type: in vivo, Sprague Dawley rats; conditions: male, Sprague Dawley, plasma; rat, IV, 10 mg/kg
observed property: half-life (h)
Give bare numbers, in h.

Please report half-life for the following molecule: `Cc1ccc(-c2cc(C(F)(F)F)nn2-c2ccc(S(N)(=O)=O)cc2)cc1`
1.5

====

test: Pharmacokinetic study after oral or intravenous administration; type: in vivo, Sprague Dawley rats; conditions: male, Sprague Dawley; rat, IV, 10 mg/kg; celecoxib in plasma; read-out: AUC0–24
observed property: AUC(0-t) (ng·h/mL)
Numbers only, in ng·h/mL.

Please report AUC(0-t) for the following compound: `Cc1ccc(-c2cc(C(F)(F)F)nn2-c2ccc(S(N)(=O)=O)cc2)cc1`
5990

====

Assay: Pharmacokinetic study after oral or intravenous administration
Format: in vivo, Sprague Dawley rats
Conditions: male, Sprague Dawley, plasma; rat, IV, 10 mg/kg
Procedure: Blood samples were collected from the jugular vein using a heparinized syringe at predetermined times. Heparinized blood samples were immediately centrifuged at 6000× g for 5 min. […] The concentration of celecoxib or N-GA1C in the samples was determined by HPLC. […] Absolute BA and relative BA were calculated using the following equations: Absolute BA (F, %) = ((AUC0–∞)PO/dose PO)/((AUC0–∞)IV/dose IV); Relative BA (%) = ((AUC0–∞)A/dose A)/((AUC0–∞)B/dose B).
observed property: Vd (L/kg)
Give bare numbers, in L/kg.

Please report Vd for the following compound: `Cc1ccc(-c2cc(C(F)(F)F)nn2-c2ccc(S(N)(=O)=O)cc2)cc1`
1.04

====

Exercise: state measured logD for each of the compounds provided.
assay: Apparent distribution coefficient (logD6.8) measurement, 1-octanol / pH 6.8 isotonic phosphate buffer; type: physicochemical; settings: pH 6.8, 1-octanol / pH 6.8 isotonic phosphate buffer, 37 °C, read-out: Log D6.8 (apparent distribution coefficient)
Numbers only.

1) Cc1ccc(-c2cc(C(F)(F)F)nn2-c2ccc(S(N)(=O)=O)cc2)cc1 [Celecoxib]    4.01
2) Cc1ccc(-c2cc(C(F)(F)F)nn2-c2ccc(S(=O)(=O)NC(=O)C(N)CCC(=O)O)cc2)cc1 (stereo not shown) [G1C, glutam-1-yl celecoxib]    0.8
3) Cc1ccc(-c2cc(C(F)(F)F)nn2-c2ccc(S(=O)(=O)NC(=O)C(CC(=O)O)NC(=O)CN)cc2)cc1 (stereo not shown) [N-GA1C, N-glycyl-aspart-1-yl celecoxib]    -0.13

Please report logD for the following compound: Cc1ccc(-c2cc(C(F)(F)F)nn2-c2ccc(S(=O)(=O)NC(=O)[C@@H](N)CC(=O)O)cc2)cc1 [A1C, aspart-1-yl celecoxib]
0.6

====

assay: Pharmacokinetic study after oral or intravenous administration; format: in vivo, Sprague Dawley rats; details: male, Sprague Dawley, plasma; rat, IV, 10 mg/kg
observed property: clearance (mL/min/kg)
Numbers only, in mL/min/kg.

Please report clearance for the following compound: `Cc1ccc(-c2cc(C(F)(F)F)nn2-c2ccc(S(N)(=O)=O)cc2)cc1`
8.01

Value source: paper PMC7693880
